Target: human orexin-2 receptor (Homo sapiens)
Sequence (O43614 1-444): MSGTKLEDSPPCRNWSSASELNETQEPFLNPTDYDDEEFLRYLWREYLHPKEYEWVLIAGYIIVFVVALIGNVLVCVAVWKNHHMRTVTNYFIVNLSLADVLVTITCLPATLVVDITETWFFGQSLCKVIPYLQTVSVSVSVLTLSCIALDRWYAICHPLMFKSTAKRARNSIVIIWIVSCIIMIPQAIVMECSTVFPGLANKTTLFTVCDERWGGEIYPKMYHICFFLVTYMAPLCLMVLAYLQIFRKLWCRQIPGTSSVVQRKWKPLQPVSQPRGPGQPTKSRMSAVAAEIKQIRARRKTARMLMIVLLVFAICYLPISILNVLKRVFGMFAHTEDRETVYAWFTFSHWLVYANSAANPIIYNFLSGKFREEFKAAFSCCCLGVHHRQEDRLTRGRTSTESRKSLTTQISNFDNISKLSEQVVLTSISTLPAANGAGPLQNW
Assay: FLIPR Ca2+ Flux Assay, CHO cells expressing the human orexin-2 receptor
Conditions: agonist 70 pM Ala-6,12 orexin-A, read-out: hOX2R FLIPR IC50
measurement_type: IC50 (nM)
One number for each entry, in nM.

Recorded IC50, per entry:
Q) Report IC50, nothing else, for this molecule: COC(=O)c1c(OC)ccnc1N[C@@H]1CC[C@@H](C)N(C(=O)c2c(F)cccc2-c2nc(C)no2)C1 [Example 8]
A) 94

Q) Please report the measured IC50 for COC(=O)c1c(OC)ccnc1N[C@@H]1CC[C@@H](C)N(C(=O)c2ncccc2-c2ncccn2)C1 [Example 18]
A) 168

Q) Please look at this molecule and report its IC50: COC(=O)c1c(OC)ccnc1N[C@@H]1CC[C@@H](C)N(C(=O)c2ccccc2-n2ncnn2)C1 [Example 3]
A) 34

Q) Specify IC50 for COC(=O)c1c(OC)ccnc1N[C@@H]1CC[C@@H](C)N(C(=O)c2cccc(F)c2-c2noc(C)n2)C1 [Example 9] and stop.
A) 57

Now look at this one.
Q) Identify IC50 associated with the molecule COC(=O)c1c(OC)ccnc1N[C@@H]1CC[C@@H](C)N(C(=O)c2c(F)cccc2-n2nccn2)C1 [Example 6]
A) 54
